- Tested on: 817829-284-R-J1-PDC complex spheroids, viability
- method: Anticancer human tumor 817829-284-R-J1-PDC patient-derived colon adenocarcinoma cell line growth inhibition [GQUAD]
- stated.conditions: second compound 0.0316 µM; first compound 0.0316 µM; stronger effect = lower value
reported.endpoint: viability, T/C (%)

• COc1ccc([C@@H](O)c2cc(-c3ncnc4cc(N5CCOCC5)ccc34)c(F)cc2Cl)nn1 + Cc1[nH]c2ccc(F)cc2c1-c1nc2c3cccnc3c3ncccc3c2[nH]1 = 110
• CC[C@@]1(O)C(=O)OCc2c1cc1n(c2=O)Cc2cc3c(CN(C)C)c(O)ccc3nc2-1 + CN(C)c1ccc(Nc2c3ccc(NC(=O)CCN4CCCC4)cc3nc3cc(NC(=O)CCN4CCCC4)ccc23)cc1 = 65.9
• CC(=O)O[C@H]1C(=O)[C@@]2(C)[C@H]([C@H](OC(=O)c3ccccc3)[C@]3(O)C[C@H](OC(=O)[C@H](O)[C@@H](NC(=O)c4ccccc4)c4ccccc4)C(C)=C1C3(C)C)[C@]1(OC(C)=O)CO[C@@H]1C[C@@H]2O + Cc1cnc(CNC(=O)c2c(=O)c3ccc(N4CCCN(C)CC4)nc3n3c2sc2ccccc23)cn1 = 13.8
• CCc1c2c(nc3ccc(O)cc13)-c1cc3c(c(=O)n1C2)COC(=O)[C@]3(O)CC + Cc1[nH]c2ccc(F)cc2c1-c1nc2c3cccnc3c3ncccc3c2[nH]1 = 13.1
• COc1cccc2c1C(=O)c1c(O)c3c(c(O)c1C2=O)CC(O)(C(=O)CO)CC3OC1CC(N)C(O)C(C)O1 (stereo not given) + Cc1cnc(CNC(=O)c2c(=O)c3ccc(N4CCCN(C)CC4)nc3n3c2sc2ccccc23)cn1 = 50.1

* * *

- Test system: 817829-284-R-J1-PDC complex spheroids, viability
- method: Anticancer human tumor 817829-284-R-J1-PDC cell line growth inhibition [GQUAD]; active means viability on the fitted dose curve at most 10% of control; inactive means the rest;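 also: spheroids exposed to agents for 7 days before readout; percent viability relative to DMSO vehicle control taken as 100%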
- stated.conditions: second compound 10 µM; first compound 0.0316 µM
Classes used: active, inactive

• O=c1[nH]cc(F)c(=O)[nH]1 + CN(C)c1ccc(Nc2c3ccc(NC(=O)CCN4CCCC4)cc3nc3cc(NC(=O)CCN4CCCC4)ccc23)cc1 = inactive
• C=CCn1c(=O)c2cnc(Nc3ccc(N4CCN(C)CC4)cc3)nc2n1-c1cccc(C(C)(C)O)n1 + Cc1cnc(CNC(=O)c2c(=O)c3ccc(N4CCCN(C)CC4)nc3n3c2sc2ccccc23)cn1 = active
• COc1ccc([C@@H](O)c2cc(-c3ncnc4cc(N5CCOCC5)ccc34)c(F)cc2Cl)nn1 + Cc1cnc(CNC(=O)c2c(=O)c3ccc(N4CCCN(C)CC4)nc3n3c2sc2ccccc23)cn1 = active
• COc1cc(C2c3cc4c(cc3C(OC3OC5COC(C)OC5C(O)C3O)C3COC(=O)C23)OCO4)cc(OC)c1O (stereo not given) + Cc1[nH]c2ccc(F)cc2c1-c1nc2c3cccnc3c3ncccc3c2[nH]1 = inactive
• CC1COCCN1c1cc(C2(O)CC3CCC(C2)O3)c2cnn(-c3ccn[nH]3)c2n1 (stereo not given) + CN(C)c1ccc(Nc2c3ccc(NC(=O)CCN4CCCC4)cc3nc3cc(NC(=O)CCN4CCCC4)ccc23)cc1 = inactive

* * *

- Test system: 817829-284-R-J1-PDC complex spheroids, viability
- method: Anticancer human tumor 817829-284-R-J1-PDC cell line growth inhibition [GQUAD];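 also: spheroids exposed to agents for 7 days before readout; percent viability relative to DMSO vehicle control taken as 100%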
- stated.conditions: second compound 0.1 µM; first compound 10 µM; stronger effect = lower value
Below: a set of entries, each annotated with reported viability, T/C.
reported.endpoint: viability, T/C (%)

* CC1COCCN1c1cc(C2(O)CC3CCC(C2)O3)c2cnn(-c3ccn[nH]3)c2n1 (centres undefined) + Cc1[nH]c2ccc(F)cc2c1-c1nc2c3cccnc3c3ncccc3c2[nH]1 | 3.62
* C=CC(=O)N1CCN(c2nc(=O)n(-c3c(C)ccnc3C(C)C)c3nc(-c4c(O)cccc4F)c(F)cc23)C(C)C1 (centres undefined) + Cc1cnc(CNC(=O)c2c(=O)c3ccc(N4CCCN(C)CC4)nc3n3c2sc2ccccc23)cn1 | 26.8
* C=CC(=O)N1CCN(c2nc(=O)n(-c3c(C)ccnc3C(C)C)c3nc(-c4c(O)cccc4F)c(F)cc23)C(C)C1 (centres undefined) + CN(C)c1ccc(Nc2c3ccc(NC(=O)CCN4CCCC4)cc3nc3cc(NC(=O)CCN4CCCC4)ccc23)cc1 | 85.4
* CCCS(=O)(=O)Nc1ccc(F)c(C(=O)c2c[nH]c3ncc(-c4ccc(Cl)cc4)cc23)c1F + Cc1[nH]c2ccc(F)cc2c1-c1nc2c3cccnc3c3ncccc3c2[nH]1 | 22.6
* CC1COCCN1c1cc(C2(O)CC3CCC(C2)O3)c2cnn(-c3ccn[nH]3)c2n1 (centres undefined) + Cc1cnc(CNC(=O)c2c(=O)c3ccc(N4CCCN(C)CC4)nc3n3c2sc2ccccc23)cn1 | 2.88
* Nc1ccn(C2OC(CO)C(O)C2(F)F)c(=O)n1 (centres undefined) + CN(C)c1ccc(Nc2c3ccc(NC(=O)CCN4CCCC4)cc3nc3cc(NC(=O)CCN4CCCC4)ccc23)cc1 | 4.58
* CC1COCCN1c1cc(C2(O)CC3CCC(C2)O3)c2cnn(-c3ccn[nH]3)c2n1 (centres undefined) + CN(C)c1ccc(Nc2c3ccc(NC(=O)CCN4CCCC4)cc3nc3cc(NC(=O)CCN4CCCC4)ccc23)cc1 | 4.3
* CC(=O)O[C@H]1C(=O)[C@@]2(C)[C@H]([C@H](OC(=O)c3ccccc3)[C@]3(O)C[C@H](OC(=O)[C@H](O)[C@@H](NC(=O)c4ccccc4)c4ccccc4)C(C)=C1C3(C)C)[C@]1(OC(C)=O)CO[C@@H]1C[C@@H]2O + Cc1cnc(CNC(=O)c2c(=O)c3ccc(N4CCCN(C)CC4)nc3n3c2sc2ccccc23)cn1 | 14.8
* O=C(c1cc(Cc2n[nH]c(=O)c3ccccc23)ccc1F)N1CCN(C(=O)C2CC2)CC1 + CN(C)c1ccc(Nc2c3ccc(NC(=O)CCN4CCCC4)cc3nc3cc(NC(=O)CCN4CCCC4)ccc23)cc1 | 60.2
* COc1ccc([C@@H](O)c2cc(-c3ncnc4cc(N5CCOCC5)ccc34)c(F)cc2Cl)nn1 + Cc1[nH]c2ccc(F)cc2c1-c1nc2c3cccnc3c3ncccc3c2[nH]1 | 51.4
* CC1COCCN1c1cc(C2(S(C)(=N)=O)CC2)nc(-c2ccnc3[nH]ccc23)n1 (centres undefined) + Cc1[nH]c2ccc(F)cc2c1-c1nc2c3cccnc3c3ncccc3c2[nH]1 | 7.69
* CC(=O)O[C@H]1C(=O)[C@@]2(C)[C@H]([C@H](OC(=O)c3ccccc3)[C@]3(O)C[C@H](OC(=O)[C@H](O)[C@@H](NC(=O)c4ccccc4)c4ccccc4)C(C)=C1C3(C)C)[C@]1(OC(C)=O)CO[C@@H]1C[C@@H]2O + CN(C)c1ccc(Nc2c3ccc(NC(=O)CCN4CCCC4)cc3nc3cc(NC(=O)CCN4CCCC4)ccc23)cc1 | 5.02
* Cc1cccc(N(C)C(=O)C2C(O)CCN2c2nc(C)cc(C(F)(F)F)c2C#N)c1 (centres undefined) + Cc1cnc(CNC(=O)c2c(=O)c3ccc(N4CCCN(C)CC4)nc3n3c2sc2ccccc23)cn1 | 33.9
* COc1ncnc(C2CC2)c1-c1ncc2cnn(Cc3ccc(-c4nc(C(F)(F)F)cn4C(C)C)cc3)c2n1 + Cc1[nH]c2ccc(F)cc2c1-c1nc2c3cccnc3c3ncccc3c2[nH]1 | 115
